# protocol-notes: growth suppression of beta-catenin knockout HCT116, pilot screen, human colon tumor cells (AID 823);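 further: 0% = wells killed by 20 µM Hyamine and 100% = untreated DMSO cell wells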
# condition-description: CellTiter-Glo, 60 h, at 10 µM, active compounds read low
Inconclusive results are not listed.
Would you kindly list viability for each of these compounds?
Numbers only, in %.

>>> df
                                   compound  result_unit  recorded_measurement
0           Cc1cc(N2CCOCC2)nc(NCc2ccccc2)n1            %                    72
1  Cc1cccc(NC(=O)C2CCCN(S(=O)(=O)c3cccc4cccnc34)C2)c1 (stereo not given)            %                  87.2
2  CC1=C(C(=O)OCC2CCCO2)C(c2ccccc2)NC(=O)N1 (stereo not given)            %                   103
3  Cc1cc(C)c2c(n1)nn1c(C)c(CCC(=O)NCc3ccco3)c(C)nc21            %                  89.8
4  CC1(C)CC(=O)C2=C(C1)OC(N)=C(C#N)C21CCN(Cc2ccccc2)CC1            %                  97.7
5  CCOC(=O)CC1C(=O)NCCN1C(=O)c1cc2c(=O)n3ccccc3nc2s1 (stereo not given)            %                  95.3

Batch lookup, viability per entry.
1. COc1ccc(Cn2nnc3c(=O)[nH]c(C(=O)NCCc4ccc(F)cc4)nc32)cc1OC
2. COc1ccc(-c2nnc(NC(=O)C(C)C)o2)cc1
3. COCCN1C=C(C(=O)OC)C(c2ccc(OC)c(OC)c2)C(C(=O)OC)=C1

Response:
1: 114; 2: 103; 3: 98

Request: Find the recorded viability belonging to `COc1cccc(-n2c(Cc3cc(=O)[nH]c(=O)[nH]3)nnc2SCC(=O)N2CCCCC2)c1` and report it.
Response: 112

* * *

Would you kindly list RAM network inhibition for each of these compounds?
# protocol-notes: RAM signaling pathway blockade in yeast – S. cerevisiae, Pdr1DBD-CYC8 efflux-inhibited sensitized strain, primary screen (AID 1298);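 further: 0% = DMSO untreated cells without growth and 100% = 10 µM 1-NA-PP1 full growth; higher means more yeast growth rescued from 5-FOA killing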
# condition-description: S. cerevisiae cbk1-as DSE1-URA3 strain, 5-FOA growth OD615, 2 d; at 50 µM; active compounds read high
One number for each entry, in %.

For orientation, consider the following solved cases.
                                   compound  recorded_measurement
0  COc1cc(C(c2sc3nc(C)nn3c2O)N2CCc3ccccc3C2)cc(OC)c1OC (stereo unspecified)                  2.85
1  Cn1c(=O)oc2cc(S(=O)(=O)NC(Cc3ccccc3)C(=O)N3CCCCC3)ccc21 (stereo unspecified)                  2.02
2  CC(=O)Nc1ccc(NC2(C)C(=O)c3ccccc3C2=O)cc1                  1.23
3  Cc1nnc(Sc2nc3c(c(=O)[nH]c(=O)n3C)n2Cc2ccccc2)s1                  0.73
4  O=C1c2ccccc2C(O)N1CCN1CCOCC1 (stereo unspecified)                  1.95

Batch lookup, RAM network inhibition per entry.
1. COC(=O)c1cc(-c2ccc3c(c2)OCO3)nc2ccccc12
2. CC(C)N(Cc1nc(-c2ccc(Cl)cc2)no1)C(=O)CCC1CCCC1
3. CCOc1cccc(C(=O)Nc2cccc(-c3nnc(-c4ccccc4)o3)c2)c1
4. CCC(=O)Nc1ccccc1C(=O)N1CCN(Cc2ccccc2)CC1
5. COc1ccccc1N1CCN(C(=O)c2sc3nc(-c4ccc(F)cc4)cn3c2C)CC1
6. C=CCn1c(=N)c(C(=O)NCCCOC)cc2c(=O)n3cccc(C)c3nc21

Response:
8.14
8.34
2.46
3.32
1.42
-0.47
